Biological target: P. aeruginosa LpxC (Pseudomonas aeruginosa (strain ATCC 15692 / DSM 22644 / CIP 104116 / JCM 14847 / LMG 12228 / 1C / PRS 101 / PAO1))
Test: P. aeruginosa LpxC Inhibition Assay
Assay type: biochemical
Conditions: 1 nM P. aeruginosa LpxC, 2 μM substrate, LC-MS/MS; read-out: PA LpxC IC50
pIC50: −log10 of the molar value.
observable: pIC50

>  <compound>
C[C@@](C[C@H]1CC(c2ccc(-c3ccc(-c4nn[nH]n4)cc3)c(F)c2)=NO1)(C(=O)NO)S(C)(=O)=O [Compound 114]

>  <observable>
pIC50

>  <observed-measurement>
> 9.30

$$$$
>  <compound>
C[C@@](C[C@H]1CC(c2ccc(-c3ccc(CCO)cc3)c(F)c2)=NO1)(C(=O)NO)S(C)(=O)=O [Compound 102]

>  <observable>
pIC50

>  <observed-measurement>
> 9.30

$$$$
>  <compound>
C[C@@](C[C@H]1CC(c2ccc(-c3ccc(CCO)cc3)cc2)=NO1)(C(=O)NO)S(C)(=O)=O [Compound 40]

>  <observable>
pIC50

>  <observed-measurement>
9.30

$$$$

Now for a further compound.
Q. Return the recorded pIC50 value; entry: C[C@@H](O)Cc1ccc(-c2ccc(C3=NO[C@@H](C[C@](C)(C(=O)NO)S(C)(=O)=O)C3)cc2)c(F)c1 [Compound 89]
A. > 9.30
